System: Saccharomyces cerevisiae;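 note: PSI is a weighted mean of sequencing reads over stability bins, variants kept only with over 10 reads, mCherry proximal and sfGFP distal, peptide attached via GGGS linker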
TEST DETAILS: protein stability index of tFT-peptide fusion (C-terminal peptide) (PSI (0-1 scale)); higher = more stable (slower turnover)
TEST PARAMETERS: genetic background: wild type; temperature: 30 C
Rule: protein stability index under 0.7 gives false (0), otherwise true (1).

Lookup: Check the entry `AVVYIRVEVPGA` : does protein stability index equal or exceed 0.7?
Found: false (0)

Lookup: Check the entry `GGGGGGGGRGWG` : does protein stability index equal or exceed 0.7?
Found: false (0)

Lookup: Check the entry `RKKGKLESKKQK` : does protein stability index equal or exceed 0.7?
Found: true (1)

Lookup: Check the entry `FPPRLPPSPPLP` : does protein stability index equal or exceed 0.7?
Found: false (0)

Lookup: Check the entry `GFLVPSSPRCHQ` : does protein stability index equal or exceed 0.7?
Found: true (1)

Lookup: Check the entry `GIHFKIHKSSSN` : does protein stability index equal or exceed 0.7?
Found: false (0)

Lookup: Check the entry `RLRQTLPTWVTT` : does protein stability index equal or exceed 0.7?
Found: false (0)

Lookup: Check the entry `PPPHPPPLAIPP` : does protein stability index equal or exceed 0.7?
Found: true (1)

Lookup: Check the entry `VRFLWWGLFWGW` : does protein stability index equal or exceed 0.7?
Found: false (0)

Lookup: Check the entry `SFVFVCDGGSRG` : does protein stability index equal or exceed 0.7?
Found: false (0)

Lookup: Check the entry `VLSFPYLSRKCI` : does protein stability index equal or exceed 0.7?
Found: false (0)

Lookup: Check the entry `CDFYGCAPAPRL` : does protein stability index equal or exceed 0.7?
Found: true (1)

Lookup: Check the entry `GVRIGYCIVRDV` : does protein stability index equal or exceed 0.7?
Found: false (0)

Lookup: Check the entry `GLRLRCPLLLSL` : does protein stability index equal or exceed 0.7?
Found: false (0)
